# SYSTEM_NAME: CDK7/CyclinH/MAT1 (Homo sapiens)
# Construct: His
# Sequence (P50613 whole entry): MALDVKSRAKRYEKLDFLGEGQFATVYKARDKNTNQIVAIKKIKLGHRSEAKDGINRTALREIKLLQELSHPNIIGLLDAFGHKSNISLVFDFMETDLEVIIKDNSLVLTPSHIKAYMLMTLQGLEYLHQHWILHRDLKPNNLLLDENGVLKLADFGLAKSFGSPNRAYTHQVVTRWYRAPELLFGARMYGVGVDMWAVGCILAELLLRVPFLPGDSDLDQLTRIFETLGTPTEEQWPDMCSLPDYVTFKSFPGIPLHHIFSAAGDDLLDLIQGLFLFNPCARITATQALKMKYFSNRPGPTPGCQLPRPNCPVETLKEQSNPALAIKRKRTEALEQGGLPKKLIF
# Sequence (P51946 whole entry partner): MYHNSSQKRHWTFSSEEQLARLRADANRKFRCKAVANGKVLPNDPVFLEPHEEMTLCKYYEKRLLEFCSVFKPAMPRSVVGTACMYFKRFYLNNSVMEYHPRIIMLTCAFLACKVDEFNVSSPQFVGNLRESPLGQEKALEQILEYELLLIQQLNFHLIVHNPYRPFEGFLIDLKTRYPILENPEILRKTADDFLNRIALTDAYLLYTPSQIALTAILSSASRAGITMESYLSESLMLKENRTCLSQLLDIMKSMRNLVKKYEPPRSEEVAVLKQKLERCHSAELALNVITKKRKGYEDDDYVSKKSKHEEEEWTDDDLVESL
# Sequence (P51948 whole entry partner): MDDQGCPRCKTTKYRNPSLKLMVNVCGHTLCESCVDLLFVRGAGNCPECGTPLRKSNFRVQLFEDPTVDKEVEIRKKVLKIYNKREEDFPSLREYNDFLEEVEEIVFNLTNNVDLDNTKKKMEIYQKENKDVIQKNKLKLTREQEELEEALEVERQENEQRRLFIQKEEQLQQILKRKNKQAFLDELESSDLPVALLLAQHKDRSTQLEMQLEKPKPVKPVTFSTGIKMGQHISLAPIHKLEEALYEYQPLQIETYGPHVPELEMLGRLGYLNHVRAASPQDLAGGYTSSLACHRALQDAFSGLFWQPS
# EXPERIMENT: LanthaScreen Eu Kinase Binding Assay, CDK7
# CONDITION_DETAILS: tracer 236, read-out: CDK7 (activity range), Kd
# key: entry, value: Kd

>  <MOLECULE>
NS(=O)(=O)Cc1cccc(Nc2ncnc(N3CCC[C@H]3CO)n2)c1 [Compound B25]

>  <Kd>
> 10 µM

$$$$

Request the reported Kd associated with COC[C@H]1CCCN1c1ncnc(Nc2cccc(CS(N)(=O)=O)c2)n1 [Compound B17]
> 10 µM

Also, NS(=O)(=O)Cc1cccc(Nc2ncnc(N3CCCC3)n2)c1 [Compound B14] please.
> 10 µM

Do the same for NS(=O)(=O)Cc1cccc(Nc2ncnc(N3CCC(F)(F)CC3)n2)c1 [Compound B2] please
> 10 µM

Same question for NS(=O)(=O)Cc1cccc(Nc2ncnc(N3CCOCC3)n2)c1 [Compound B10] please.
1 to 10 µM

Same read-out for CN1CCN(c2ncnc(Nc3cccc(CS(N)(=O)=O)c3)n2)CC1 [Compound B12] ?
> 10 µM

Also need NS(=O)(=O)Cc1cccc(Nc2ncnc(N3CCc4ccccc43)n2)c1 [Compound B52] , thanks.
> 10 µM

Would you mind doing CC(C)(C)OC(=O)NCC1CCCCN1c1ncnc(Nc2cccc(CS(N)(=O)=O)c2)n1 (racemic) [Compound B7] as well?
> 10 µM

Follow-up entry: NS(=O)(=O)Cc1cccc(Nc2ncnc(N3CCCc4ccccc43)n2)c1 [Compound B42]
> 10 µM

Would you kindly repeat that for NS(=O)(=O)Cc1cccc(Nc2ncnc(N3CCCC3CCc3ccccc3)n2)c1 (racemic) [Compound B27] ?
> 10 µM

Could you do the same for NS(=O)(=O)Cc1cccc(Nc2ncnc(N3CCc4sccc4C3)n2)c1 [Compound B43] , please?
1 to 10 µM

Could you do the same for COC[C@@H]1CCCN1c1ncnc(Nc2cccc(CS(N)(=O)=O)c2)n1 [Compound B18] , please?
> 10 µM

Entry to check: NS(=O)(=O)Cc1cccc(Nc2ncnc(N3CCc4nc[nH]c4C3)n2)c1 [Compound B44]
1 to 10 µM

And what about the molecule NS(=O)(=O)Cc1cccc(Nc2ncnc(N3CCc4ccccc4C3)n2)c1 [Compound B40] ?
> 10 µM

Note, next up: NS(=O)(=O)Cc1cccc(Nc2ncnc(N3CCn4ccnc4C3)n2)c1 [Compound B46]
> 10 µM

And what about the molecule NS(=O)(=O)Cc1cccc(Nc2ncnc(N3CCCC3Cc3ccccc3)n2)c1 (racemic) [Compound B26] ?
> 10 µM

How about this molecule: NS(=O)(=O)Cc1cccc(Nc2ncnc(N3CCNCC3)n2)c1 [Compound B11]
> 10 µM

Would you mind doing NS(=O)(=O)Cc1cccc(Nc2ncnc(N3CCCCC3c3ccccc3)n2)c1 (racemic) [Compound B9] as well?
> 10 µM

---

Quick list: pKd per entry.
# SYSTEM_NAME: T1, CDK9/Cyclin T1 (Homo sapiens, UniProt P50750)
# T1 construct: His
# EXPERIMENT: LanthaScreen Eu Kinase Binding Assay, CDK9/Cyclin T1
# CONDITION_DETAILS: tracer 236, read-out: CDK9/Cyclin T1 (activity range), Kd
pKd: −log10 of the molar value.

>  <MOLECULE>
COC[C@@H]1CCCN1c1ncnc(Nc2cccc(CS(N)(=O)=O)c2)n1

>  <pKd>
5.00 to 6.00

$$$$
>  <MOLECULE>
COC[C@H]1CCCCN1c1ncnc(Nc2cccc(CS(N)(=O)=O)c2)n1

>  <pKd>
6.00 to 7.00

$$$$
>  <MOLECULE>
NS(=O)(=O)Cc1cccc(Nc2ncnc(N3CCNCC3)n2)c1

>  <pKd>
< 5.00

$$$$

Now look at this one.
# input molecule: "NS(=O)(=O)Cc1cccc(Nc2ncnc(N3CCc4nc[nH]c4C3)n2)c1" ; wanted: its pKd
> 7.00

This collection of values is drawn from patent US9226929B2.
